Test system: SMN2 mRNA
Assay: Splicing RT-qPCR gene panel, SMN2 canonical junction (CJ) mRNA
Assay type: cell-based
Conditions: Homo sapiens; Table 8; larger gene panel, decrease in CJ mRNA levels
Protocol: Compounds described herein were used to modulate RNA transcript abundance in cells. The expression of a target mRNA was measured by detecting the formation of an exon-exon junction in the canonical transcript (CJ). A compound mediated exon-inclusion event was detected by observing an increase in formation of a new junction with an alternative exon (AJ). Real-time qPCR assays were used to detect these splicing switches and interrogate the potency of various compounds towards different target genes. […]

compound: Cc1cc(-c2nc3sc(C4CCNCC4)cc3s2)cc2cn(C)nc12
IC50: < 0.1 µM
//
compound: CCNC1CCN(c2cc3sc(-c4cc(F)c5nn(C)cc5c4)nc3s2)CC1
IC50: < 0.1 µM
//
compound: Cc1cn2nc(-c3nc4sc(C5CCNCC5)cc4s3)cc(C)c2n1
IC50: < 0.1 µM
//
compound: Cn1cc2cc(-c3cc4cn([C@H]5CCNC[C@@H]5F)nc4s3)cc(F)c2n1
IC50: < 0.1 µM
//
compound: Cn1cc2cc(-c3cc4cn([C@@H]5CCNC[C@H]5F)nc4s3)cc(F)c2n1
IC50: < 0.1 µM
//
compound: Cn1cc2cc(-c3cc4cn([C@@H]5CCNC[C@@H]5F)nc4s3)cc(F)c2n1
IC50: 0.1 to 1 µM
//
compound: CN1CCC(c2cc3sc(-c4cc(F)c5nn(C)cc5c4)nc3s2)CC1
IC50: < 0.1 µM
//
compound: Cc1cn2nc(-n3cc4sc(N5CCC(NC(C)(C)C)C5)cc4n3)cc(C)c2n1 (centres unmarked)
IC50: 1 to 10 µM

These data points were gathered from patent US20250109140A1.
